- tested.on: HLA-DRB1*0401 (Homo sapiens (Human), UniProt P01903+P01911, A100K/A169T/DEL228-266/F76Y/I96L/K127E/L162R/M171V/N62H/P40V/Q125Y/R42H/S133A/S149N/S66Y/V115G/V209L/W38E)
- assay.protocol: HLA-DR4 HTRF assay
- run.conditions: inhibition of loading of Alexa Fluor 647-labeled Cit-CII peptide onto HLA-DR4 (CLIP cleaved)
# note: exactly 1000 nM is not below, so it is condition not met; use condition met for IC50 strictly under it

Please indicate whether the reported IC50 of CCc1cc2c(cc1O[C@H](c1ccncc1)c1ccc(C(N)=O)cc1)OCCC2=O (single isomer, unassigned) [Example 74b] is strictly below 1000 nM.
condition met

Given the entry Cc1c(O[C@H](c2ccc(Cl)cc2)c2ccc(C(N)=O)cc2)ccc2c1OCCC2=O (single isomer, unassigned) [Example 57b] , would its reported IC50 be below 1000 nM?
condition not met

Is IC50 strictly under 1000 nM for the entry Cc1cc([C@H](Oc2c(F)cc3c(c2C)OCCC3=O)c2ccc(C(N)=O)cc2)cc(C)n1 (single isomer, unassigned) [Example 94a] ?
condition met

Determine whether this compound shows IC50 lower than 1000 nM (ties excluded): CC1(C)COc2cc(O[C@@H](c3ccncc3)c3ccc(C(N)=O)cc3)ccc2C1=O (single isomer, unassigned) [Example 56a]
condition not met

hey, is IC50 for Cc1cc2c(c(C)c1O[C@H](c1ccc(F)cc1)c1ccc(C(N)=O)cc1)OCCC2=O (single isomer, unassigned) [Example 90b] lower than 1000 nM or not?
condition met

Quick check: does CCc1cc(O[C@H](c2ccncc2)c2ccc(C(N)=O)cc2)cc2c1C(=O)CCO2 (single isomer, unassigned) [Example 99b] have IC50 under 1000 nM?
condition not met

I'd appreciate it if you could check whether N#Cc1c(O[C@@H](c2ccncc2)c2ccc(C(N)=O)cc2)ccc2c1OCCC2=O (single isomer, unassigned) [Example 78a] has IC50 smaller than 1000 nM.
condition met

Could you please tell me whether IC50 recorded for COc1cc(C(N)=O)ccc1[C@@H](Oc1ccc2c(c1C)OCCC2=O)c1ccncc1 (single isomer, unassigned) [Example 82b] is less than 1000 nM?
condition met

Lab log: compare recorded IC50 with 1000 nM; is it strictly lower for NC(=O)c1ccc([C@H](Oc2ccc3c(c2)OCCC3=O)c2ccccc2)cc1 (single isomer, unassigned) [Example 29a] ?
condition not met

# strict comparison: is reported IC50 < 1000 nM? input = NC(=O)c1ccc([C@H](Oc2ccc3c(c2)OCCC3=O)c2ccncc2)cc1 (single isomer, unassigned) [Example 11b]
condition met

IC50 under 1000 nM? Item: Cc1c(O[C@H](c2ccc(C#N)cc2)c2ccc(C(N)=O)cc2)ccc2c1OCCC2=O (single isomer, unassigned) [Example 59a]
condition not met

Please state whether IC50 is below 1000 nM for Cc1c(O[C@@H](c2ccncc2)c2ccc(C(N)=O)cc2OCC(C)C)ccc2c1OCCC2=O (single isomer, unassigned) [Example 85b]
condition not met

Hello, I'm reviewing records and need to know if IC50 of NC(=O)c1ccc([C@H](Oc2ccc3c(c2)OCCC3=O)c2ccnc(-c3ccccc3)c2)cc1 (single isomer, unassigned) [Example 26b] is below 1000 nM. Could you check?
condition not met
